tested on: Fibroblast; assay: Multiplex assay against human fibroblast; type: toxicity, cell-based; conditions: 48 h, 10 µM, compound concentration 10 uM, replicate 1
compounds and their reported Population Apoptotic (%)
Unit % implied. Number only.

Query string: Dear colleague, please send me the reported Population Apoptotic (%) for "CCCOc1ccc2[nH]cc(C3=CCNCC3)c2n1.Cl" when you can.
Result string: 73

Query string: Provide Population Apoptotic (%) value for the following compound: "Cc1noc(-c2ccc(-c3ccc(CC(=O)O)cc3)cc2)c1NC(=O)O[C@H](C)c1ccccc1Cl"
Result string: 23

Query string: Report measured Population Apoptotic (%); entry is "CC(=O)Nc1cccc2c1c(Sc1ccc(Cl)cc1)c(C)n2CC(=O)O"
Result string: 64

Query string: Fill in Population Apoptotic (%) for record "CC[C@@H](C)Nc1nc(C)nc2c(-c3ccc(OC)nc3C)c(C)nn12"
Result string: 87

Query string: For "N#Cc1cc(F)cc(-c2nc(-c3ccc(F)cn3)no2)c1" , write its Population Apoptotic (%).
Result string: 84

Query string: Retrieve Population Apoptotic (%) measured for "CN(C)C(=O)Cn1cc(-c2ccc(-c3cncc4ccccc34)cc2)cn1" and print it.
Result string: 72

Query string: Look up and state reported Population Apoptotic (%) for "CN1CCN(c2cc(-c3ccccc3)nc(N)n2)CC1"
Result string: 40

====

system: HEK-293T; experiment: Multiplex assay against HEK293T; type: toxicity, cell-based; conditions: human, 48 h, 10 µM, compound concentration 10 uM, replicate 1
reported_property: Population Apoptotic (%)

Query string: # return Population Apoptotic (%) for CC[C@@H](C)Nc1nc(C)nc2c(-c3ccc(OC)nc3C)c(C)nn12 [PEXACERFONT] , test system: HEK-293T
Result string: 40%

Query string: State recorded Population Apoptotic (%) with HEK-293T, entry "CCc1cc2cc(NS(=O)(=O)c3ccc(C#N)cc3)ccc2n(CC)c1=O" , no comment.
Result string: 26%

Query string: Retrieve Population Apoptotic (%) on HEK-293T; query "N#Cc1c(Oc2cccc(OS(=O)(=O)CCCC(F)(F)F)c2)cccc1C(F)(F)F"
Result string: 44%

Query string: Provide HEK-293T Population Apoptotic (%) reading for CN[C@@H](C)C(=O)N[C@H](C(=O)N1CCC[C@H]1C(=O)Nc1snnc1-c1ccccc1)C1CCCCC1 [GDC-0152] .
Result string: 47%

Query string: Jot down Population Apoptotic (%) (HEK-293T) of "CC(/C=C1\SC(=S)N(CCCC(=O)Nc2ccc(C(=O)O)c(O)c2)C1=O)=C\c1ccccc1" .
Result string: 24%

Query string: Please tell me the measured Population Apoptotic (%) for Cl.N=C(N)NC(=O)Cc1c(Cl)cccc1Cl [GUANFACINE HYDROCHLORIDE] ; system: HEK-293T.
Result string: 47%

====

test system: U2OS; test: Multiplex assay against U2OS; type: toxicity, cell-based; conditions: human, 12 h, 10 µM, compound concentration 10 uM, replicate 2
Reported Population Pyknosed Nuclei (%) values are given for each entry in this list.
Remember to quote the unit after the number.

Known results for compounds:
compound	reported_property	result
CC[C@@H](C)Nc1nc(C)nc2c(-c3ccc(OC)nc3C)c(C)nn12	Population Pyknosed Nuclei (%)	7%
CN1CCN(c2cc(-c3ccccc3)nc(N)n2)CC1	Population Pyknosed Nuclei (%)	10%
CN[C@@H](C)C(=O)N[C@H](C(=O)N1CCC[C@H]1C(=O)Nc1snnc1-c1ccccc1)C1CCCCC1	Population Pyknosed Nuclei (%)	15%

As a next step, examine the compound that follows.
Query string: Report Population Pyknosed Nuclei (%) for "Cc1noc(-c2ccc(-c3ccc(CC(=O)O)cc3)cc2)c1NC(=O)O[C@H](C)c1ccccc1Cl"
Result string: 5%

The measured values listed here are drawn from ChEMBL document CHEMBL5058577.
